Source listed as patent US20220288052A1.

PROCEDURE TEXT: Exposure and tissue distribution after 14 days repeat dosing, mouse
Assay type: in vivo
DETAILS: NMRI, mouse, liver, po; Female mice, 30 mg/kg p.o. 14 days, 2 h post last dose; read-out: Liver concentration
MEASURED QUANTITY: concentration at 2 h (ng/g)
Give bare numbers, in ng/g.

Given the entry O=c1ccc2ccc(O[C@@H]3C[C@H]4CC[C@@H](C3)N4)cc2o1 , report its measured concentration at 2 h. 22500

----------
PROCEDURE TEXT: Bioavailability study in dog
Type: in vivo
DETAILS: both sexes, beagle, dog, plasma, other: p.o. and i.v.; the two dogs, after both p.o. and i.v. administration; read-out: T½
MEASURED QUANTITY: half-life

Given the entry O=c1ccc2ccc(O[C@@H]3C[C@H]4CC[C@@H](C3)N4)cc2o1 [Compound (I)] , report its measured half-life. 1.4 to 1.7 h
